B1: library; a variant is named by its letters at N, in order (parent)
chain: GAGACCGCAACTGAAAAGTTGTGGNNNNNATAGTGAGTCGCTGCCTGCAAAGACACAACT

Variants of: B1
assay.summary: ligation selection enrichment (abundance after / before one-round selection) (fold); higher = more template-directed ligation activity
setup.conditions: with T7Psub CACGGAUGCUAAUACGACUCACUAUA; MgCl2 25 mM; 42 °C; 4 h; pH 8.5
Label Condition met when ligation selection enrichment >= 0.4; otherwise Condition not met.

INSERT INTO measurements (variant_code, answer_label) VALUES
  ('TCATA', 'Condition not met'),
  ('CCTAG', 'Condition not met'),
  ('CCGTT', 'Condition not met'),
  ('AGGCT', 'Condition met'),
  ('CTGCT', 'Condition met'),
  ('CTGGT', 'Condition not met'),
  ('CCTAA', 'Condition not met'),
  ('GGACG', 'Condition met'),
  ('CGACG', 'Condition met'),
  ('CGGCG', 'Condition not met'),
  ('GACAG', 'Condition met');
